I'd be grateful if you could share measured z-score for these entries.
- experiment: P. aeruginosa biofilm formation inhibitors, primary screen, PAO1 strain, BacTiter-Glo luminescence, LB-PBS (AID 1144)
- stated_conditions: 12 h, higher = more signal
One number for each entry.

C[C@@H](OCc1ccccc1)C1NC(=O)[C@@]23C(=O)N[C@@H](Cc4ccccc4)C2[C@H](C)[C@@]2(C)O[C@H]2C3/C=C/C/C=C\CNC(=O)[C@H](Cc2ccccc2)NC1=O (stereo partly drawn)
0.541
CCOC(=O)C1=CCC(c2cc3ccccc3[nH]2)N(S(=O)(=O)c2ccccc2[N+](=O)[O-])C1 (stereo not drawn)
-0.295
COC(=O)[C@]1(CO)N=C(c2ccc(OCCCO)cc2)O[C@@H]1c1ccccc1CN=[N+]=[N-]
1.34
C=CC[C@]1(C(=O)NCc2ccccc2)COC(c2ccc(OCCCO)cc2)=N1
0.271
CC(=O)c1ccc(C(O)C2C=CC3C(=O)NC(=O)C3N2Nc2ccc(Cl)cc2Cl)cc1 (stereo not drawn)
-0.806

# return z-score for each item in the list
1. C=CC[C@@]1(C(=O)O)N=C(c2ccc(OCCCO)cc2)O[C@@H]1c1ccccc1CN=[N+]=[N-]
2. C=C(C(=O)CC[C@@H](OC(C)=O)c1cccc(OCCO)c1)C(C)C
3. COCCCNC(=O)[C@@H]1c2ccccc2C(=O)N(C2CCCCC2)[C@H]1c1ccc(CO)cc1

A)
1. -1.6
2. 0.0482
3. -0.303

###

- experiment: small-molecule microarray binders of probe aLefty2, primary screen, biochemical, biotinylated probe, 635/667 nm fluorescence (AID 1094);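 further: score merges spot fluorescence near 667 nm with spot signal-to-noise ratio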
- stated_conditions: higher = more signal
Output 1.0 for composite z-score not less than -0.05; output 0.0 otherwise.

Q) // inclusive: composite z-score at least -0.05? input: CCCCC=C[C@@H](NC(=O)c1ccc(C(F)(F)F)cc1)c1ccccc1
A) 1.0

Q) // inclusive: composite z-score at least -0.05? input: C=C(CCCC)C(=O)CC[C@H](OC(=O)c1cccnc1)c1ccc(CO)o1
A) 1.0

Q) // inclusive: composite z-score at least -0.05? input: COCCOC(=O)N1C(=O)[C@@]2(c3cc(C#Cc4ccc(OC)cc4)ccc31)[C@H](C(=O)Nc1nc3ccccc3s1)[C@H]1C(=O)O[C@H](c3ccccc3)[C@H](c3ccccc3)N1[C@@H]2c1ccccc1OCCO
A) 0.0

Q) // inclusive: composite z-score at least -0.05? input: COC(=O)[C@H](Cc1ccc(O)cc1)N1CC2=CCCC=C[C@@H]2[C@H]1[C@H](O)Cc1ccccc1
A) 0.0

###

- target_under_test: NADPH oxidase 4 (Homo sapiens)
- experiment: NOX4-dependent H2O2 signal modulators, primary screen, NOX inhibitor project, cell-based, HEK293-NOX4, tetracycline-induced, Amplex Red fluorescence (AID 1160)
- stated_conditions: 45 min, higher = more signal, called active from +8 up or from −8 down
I'd be grateful if you could share measured z-score for these entries.
One number for each entry.

CC(C)C(=C=CC[C@@H](O)c1ccc(OCCO)cc1)CCO
-0.462
COCCOC(=O)N1C(=O)[C@@]2(c3cc(C#Cc4ccc(OC)cc4)ccc31)[C@H](c1ccc(OCCO)cc1)N1[C@H](c3ccccc3)[C@H](c3ccccc3)OC(=O)[C@H]1[C@@H]2C(=O)N1CCCCCCC1
0.274
O=C1NC(=O)C2C1C=CC(C(O)c1ccc(F)cc1)N2Nc1ccccn1 (stereo not drawn)
-2.92
CC(=O)n1cc(C(O)C2C=CC3C(=O)N(c4ccccc4)C(=O)C3N2Nc2ccccc2F)c2ccccc21 (stereo not drawn)
-3.23
CCCCC(=C=CC[C@@H](O)c1cccc(OCCO)c1)C[C@@H](O)COCc1ccccc1
-1.01

# return z-score for each item in the list
1. CC(C)=CCN(C(=O)C#Cc1ccccc1)[C@H](CO)c1ccccc1
2. [N-]=[N+]=NCc1ccccc1[C@H]1OC(c2ccc(OCCCO)cc2)=N[C@@]1(Cc1ccccc1)C(=O)N1CCOCC1
3. COCCOC(=O)N1C(=O)[C@@]2(c3cc(C#CC4(O)CCCCCC4)ccc31)[C@H](C(=O)NC[C@H](O)c1ccccc1)[C@H]1C(=O)O[C@H](c3ccccc3)[C@H](c3ccccc3)N1[C@@H]2c1ccc(O)cc1

A)
-1
0.154
1.02
